Recorded competition value, one value per entry.
subject.of.test: stabilized BG505 SOSIP construct MD39 (HIV isolate BG505)
assay.summary: competition ELISA on MD39 vs CH103

{"columns": ["binder", "competition value"],
 "data": [
  ["NC-Cow5 (antibody) VH: QVQLQESGPSLVKPSQTLSLTCMVSGFSLNDKAVGWVRQAPGKALEWLGSIDAGGSTGYNPGLKSRLSISKDNSKNQVSLSVSSVTTEDSATYYCGTVHQRTQPKQTCPNGYSDDSALRYYSRCSDRDCWRCTGTTYYDTCQCSSYTYIHTYELYVDAWGQGLLVTVSS VL: QDVLTQPSSVSGSLGQRVSITCSGSSSNVGNGYVSWYQLIPGSAPRTLIYGDTSRASGVPDRFSGSRSGNTATLTISSLQAEDEADYFCASPEDSSSNAVFGSGTTLTVL", 38],
  ["NC-Cow7 (antibody) VH: KVQLRESGPSLVKPFETLSLTCTGSGFSLSDKAAGWVRQAPGKAPEWLGSIDTGGNTGYNPGLKYRLSITKDNSKSQVSLSVSSMTSEDSATYYCTTVHQKAYKKVCPDDYSSNPDCVRLYGWSHCDCMRDSFGGWCRADGCSSTVEIGPYEWYVNAWGQGLLVTVSS VL: QAVLTQPSSVSGSLGQRVSITCSGSSSNVGNGYVSWYQLIPGSAPRSLIYGDTSRASGVPDRFSGSRSGNTATLTISSLQAEDEADYFCASPEDSSSNGVFGSGTTLTVL", 35],
  ["NC-Cow4 (antibody) VH: KVQLRESGPSLVKPSQTLSLTCMVSGFSLNDEAVGWVRQAPGKALEWLGSIDAGGSTGYNPGLKSRLSISKDNSKNQVSLSVSSVTTEDSATYYCGTVHQRTQPKQTCPNGYSDDSALRYYSRCSDRDCWRCTGTTYYDTCQCSSYTYIHTYELYVDAWGQGLLVTVSS VL: QAVLTQPSSVSGSLGQRVSITCSGSSSNVGNGYVSWYQLIPGSAPRTLIYGDTSRASGVPDRFSGSRSGNTATLTISSLQAEDEADYFCASPEDSSSNAVFGSGTTLTVL", 13],
  ["NC-Cow2 (antibody) VH: KVQLRESGPSLVKPSQTLSLTCMVSGSSLSDKAVGWVRQAPGKALEWLGIISAGGNRGYNSGLRSRLTISKDNSKNEVSLRVRSVTTEDSATYFCGTVHQKTQRKPICPDGYSDDSTLRYYSRCSDRDCWRCTGTTYYDTCQCGTYTWIDTHELHVDAWGQGLLVTVSS VL: QAVLNQPSSVSGSLGQRVSITCSGSSSNVGNGYVSWYQLIPGSAPRTLIYGDTSRASGVPDRFSGSRSGNTATLTISSLQAEDEADYFCASAEDSSSNAVFGSGTTLTVL", 11]
]}
